# Study system: Muscarinic acetylcholine receptor M1 (Rattus norvegicus, UniProt P08482)
# Procedure summary: In vitro binding affinity towards Muscarinic acetylcholine receptor M1 by the displacement of [3H]pirenzepine in rat cerebral cortical membranes
# Type: cell membranes, Membrane
pIC50: −log10 of the molar value.
Rule: pIC50 under 8 gives rule not met, otherwise rule met.

query: Exam item: decide whether the reported pIC50 for COc1nsnc1C1=CC(C)CN(C)C1 (stereo not drawn) is at least 8.
result: rule not met

query: Identify whether the reported pIC50 of the following compound is 8 or greater: CCCCCCOc1nsnc1C1=CC2(C)CCCCC2(C)N(C)C1 (stereo not drawn)
result: rule not met

query: Does the reported pIC50 for CCCCCCOc1nsnc1C1=C(C)CCN(C)C1 fall at or above the 8 mark?
result: rule not met

query: Does pIC50 meet or surpass 8 for CCOc1nsnc1C1=CCC(C)N(C)C1 (stereo not drawn) ?
result: rule not met

query: I'd appreciate it if you could say whether CCC#CCCOc1nsnc1C1=CCC(C)N(C)C1 (stereo not drawn) has pIC50 at least equal to 8.
result: rule met

query: Determine whether measured pIC50 meets or exceeds 8 for COc1nsnc1C1=C(C)CCN(C)C1
result: rule not met

query: Has CCCCCCOc1nsnc1C1=CCCN(C)C1C (stereo not drawn) a recorded pIC50 greater than or equal to 8?
result: rule not met

query: Could you please find out whether CCCCCCOc1nsnc1C1=CCC(C)N(C)C1 (stereo not drawn) has pIC50 that meets 8 or exceeds it?
result: rule met

query: Evaluate CCCCCOc1nsnc1C1=CCC(C)N(C)C1 (stereo not drawn) : pIC50 at minimum 8?
result: rule met

====

Please go through the items and note down their pIC50.
# Study system: Muscarinic acetylcholine receptor M1 (Rattus norvegicus)
# Sequence (P08482 whole entry): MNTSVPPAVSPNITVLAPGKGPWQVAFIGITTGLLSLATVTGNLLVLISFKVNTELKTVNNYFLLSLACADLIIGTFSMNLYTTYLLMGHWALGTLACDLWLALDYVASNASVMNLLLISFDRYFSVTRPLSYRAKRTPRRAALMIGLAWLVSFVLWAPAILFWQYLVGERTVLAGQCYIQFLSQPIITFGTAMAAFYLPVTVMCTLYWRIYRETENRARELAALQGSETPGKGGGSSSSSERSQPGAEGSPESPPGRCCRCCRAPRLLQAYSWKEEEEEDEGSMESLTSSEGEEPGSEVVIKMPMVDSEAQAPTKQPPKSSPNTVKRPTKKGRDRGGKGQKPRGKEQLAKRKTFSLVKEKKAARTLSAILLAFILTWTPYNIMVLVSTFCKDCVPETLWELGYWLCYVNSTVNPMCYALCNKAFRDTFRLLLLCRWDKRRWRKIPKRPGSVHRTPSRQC
# Procedure summary: In vitro binding affinity towards Muscarinic acetylcholine receptor M1 by the displacement of [3H]pirenzepine in rat cerebral cortical membranes
# Assay type: cell membranes, Membrane
# pIC50 = -log10(concentration in molar units)

// recorded pIC50 for C=CCCCOc1nsnc1C1=CCC(C)N(C)C1 (centres undefined) : 8.10

The reported pIC50 of the molecule CCCOc1nsnc1C1=CC(C)CN(C)C1 (centres undefined) was 7.82

Field pIC50 (entry CCCCCCOc1nsnc1C1=CC(C)CN(C)C1 (centres undefined) ) reads 8.15

So for CCCCOc1nsnc1C1=CCC(C)N(C)C1 (centres undefined) , the logged pIC50 turned out to be 8.10
